Test system: U251 CNS
Test: NCI-60 one-dose screen, 48 h (100 = growth as untreated, 0 = no growth, -100 = all killed)
Conditions: 10 µM unless noted
About 83,000 compounds went through this panel and 20% of them were active in at least one assay; those are over-represented in the sample as a whole. Active and inactive are the calls of the source. How the source made its calls: active means growth percent below 10; inactive means the rest.
assay.metric: growth

>  <molecule>
CN1CCN(c2nc(-c3cccc4ccccc34)nc3sc4c(c23)CCCCCC4)CC1

>  <assay.target>
U251 CNS

>  <obs.value>
66.4% (inactive)

$$$$
>  <molecule>
COc1cccc(-c2nn(-c3ccccc3)cc2-c2ccnc(NCCCNS(=O)(=O)c3ccc(C(F)(F)F)cc3)c2)c1

>  <assay.target>
U251 CNS

>  <obs.value>
27.1% (inactive)

$$$$
>  <molecule>
CCSc1ncnc2c1ncn2C1OC(CO)C(O)C1O (centres undefined)

>  <assay.target>
U251 CNS

>  <obs.value>
54.5% (inactive)

$$$$
>  <molecule>
C=C(C)[C@@H]1CC[C@]2(c3nnc(-c4ccncc4)o3)CC[C@]3(C)[C@H](CC[C@@H]4[C@@]5(C)CCC(=O)NC(C)(C)[C@@H]5CC[C@]43C)[C@@H]12

>  <assay.target>
U251 CNS

>  <obs.value>
96% (inactive)

$$$$
>  <molecule>
C/C(=N\NC(=O)C(C)SC(C)C(=O)N/N=C(\C)c1cccnc1)c1cccnc1 (centres undefined)

>  <assay.target>
U251 CNS

>  <obs.value>
110% (inactive)

$$$$
>  <molecule>
c1csc(-c2nc(-c3cc4ccccc4c(N4CCOCC4)n3)cs2)c1

>  <assay.target>
U251 CNS

>  <obs.value>
82.2% (inactive)

$$$$
>  <molecule>
C[C@]12CC[C@@H]3c4ccc(O)cc4CC[C@H]3[C@@H]1C[C@H](O)[C@@H]2O

>  <assay.target>
U251 CNS

>  <obs.value>
100% (inactive)

$$$$
>  <molecule>
COc1ccc2c(c1)c1nc3cc(C)c(C)cc3nc1n2CCN(C)C

>  <assay.target>
U251 CNS

>  <obs.value>
-85.8% (active)

$$$$
>  <molecule>
CC/C=C\C[C@H]1CC=C2C(=O)C=C[C@@H]2CC=CCCCC(=O)O[C@@H](CCCCC)CC=C2C(=O)C=C[C@@H]2CC=CCCCC(=O)O[C@@H](CCCCC)CC=C2C(=O)C=C[C@@H]2CC=CCCCC(=O)O[C@@H](CCCCC)CC=C2C(=O)C=C[C@@H]2CC=CCCCC(=O)O1

>  <assay.target>
U251 CNS

>  <obs.value>
-45.8% [7.9 µM] (active)

$$$$
>  <molecule>
CCN1CCN(c2nc(C)cc(N(CCCNc3ccnc4cc(Cl)ccc34)Cc3ccco3)n2)CC1

>  <assay.target>
U251 CNS

>  <obs.value>
42.2% (inactive)

$$$$
>  <molecule>
CN1CCN(CCOc2ccc(-c3cnc4c(-c5cccc(F)c5)cnn4c3)cc2)CC1

>  <assay.target>
U251 CNS

>  <obs.value>
46.6% (inactive)

$$$$
>  <molecule>
COc1cc(C(=O)/C=C/c2cc(-c3ccc4c(c3)OCO4)n[nH]2)cc(OC)c1OC

>  <assay.target>
U251 CNS

>  <obs.value>
5.54% (active)

$$$$
>  <molecule>
CN(CSc1ccc(Cl)cc1)c1ccc(CSc2ccc(Cl)cc2)cc1

>  <assay.target>
U251 CNS

>  <obs.value>
53.6% (inactive)

$$$$
>  <molecule>
Cc1cc(N2CCCCC2)nc(N(CCCNc2ccnc3cc(Cl)ccc23)Cc2ccco2)n1

>  <assay.target>
U251 CNS

>  <obs.value>
24.7% (inactive)

$$$$
>  <molecule>
C[N+](C)(CCCCCC[N+](C)(C)C1c2ccccc2-c2ccccc21)C1c2ccccc2-c2ccccc21

>  <assay.target>
U251 CNS

>  <obs.value>
96.4% (inactive)

$$$$
>  <molecule>
COC(=O)[C@]12CC[C@@H](C)[C@H](C)[C@@H]1C1=CC[C@@H]3[C@@]4(C)CC(=O)[C@H](OC(=O)c5ccco5)[C@@]5(C)COC(=C45)C[C@@]3(C)[C@]1(C)CC2

>  <assay.target>
U251 CNS

>  <obs.value>
24.9% (inactive)

$$$$
>  <molecule>
C[C@H]1OC(=O)/C=C/[C@@H](O)[C@@H](O)CCCCCCCC[C@@H]1O

>  <assay.target>
U251 CNS

>  <obs.value>
90.2% (inactive)

$$$$
>  <molecule>
COC(=O)c1cc(=O)nc(N/N=C/c2ccc(C)cc2)s1

>  <assay.target>
U251 CNS

>  <obs.value>
107% (inactive)

$$$$
>  <molecule>
C[C@H]1[C@H]2C3=CC[C@@H]4[C@@]5(C)C/C(=C/c6ccco6)C(=O)C(C)(C)[C@@H]5CC[C@@]4(C)[C@]3(C)CC[C@@]2(C(=O)N2CCOCC2)CC[C@@H]1C

>  <assay.target>
U251 CNS

>  <obs.value>
49.1% (inactive)

$$$$
>  <molecule>
CC1(C)C(=O)/C(=C\c2ccccn2)C[C@]2(C)[C@H]3CC[C@@H]4[C@@H](C(=O)/C=C/c5ccccn5)CC[C@@]4(C)[C@]3(C)CC[C@@H]12

>  <assay.target>
U251 CNS

>  <obs.value>
-80.5% (active)

$$$$
>  <molecule>
CC[C@]12C=CCN3CC[C@@]4(c5cc([C@H]6CCC(=O)N6)c(OC)cc5N(C)[C@H]4[C@@](O)(C(=O)OC)[C@@H]1OC(C)=O)[C@@H]32

>  <assay.target>
U251 CNS

>  <obs.value>
98.3% [2.5 µM] (inactive)

$$$$
>  <molecule>
COc1ccc2[nH]cc(-c3nc(-c4c[nH]c5ncccc45)cs3)c2c1

>  <assay.target>
U251 CNS

>  <obs.value>
34.8% (inactive)

$$$$
>  <molecule>
Oc1cccc2oc(=S)[nH]c12

>  <assay.target>
U251 CNS

>  <obs.value>
109% (inactive)

$$$$
>  <molecule>
COc1cc(-c2c(C#N)c(-c3cccs3)nc3c2c(-c2ccccc2)nn3-c2ccccc2)ccc1O

>  <assay.target>
U251 CNS

>  <obs.value>
78.3% (inactive)

$$$$
>  <molecule>
CC1(c2ccccc2)OC1C(=O)O (centres undefined)

>  <assay.target>
U251 CNS

>  <obs.value>
117% (inactive)

$$$$
>  <molecule>
CNC(=O)c1cc(Oc2ccc3nc(NC(=O)Nc4ccc(Cl)cc4)sc3c2)ccn1

>  <assay.target>
U251 CNS

>  <obs.value>
37.3% (inactive)

$$$$
>  <molecule>
COc1cc(-c2cc3ncccc3c3nc(N)c4cccnc4c23)cc(OC)c1OC

>  <assay.target>
U251 CNS

>  <obs.value>
18.9% (inactive)

$$$$
>  <molecule>
NC1=C(C/C(N)=N\O)C(c2ccccc2Cl)c2c(ccc3ccccc23)O1 (centres undefined)

>  <assay.target>
U251 CNS

>  <obs.value>
91.3% (inactive)

$$$$
>  <molecule>
O=C1/C(=C\C(Cl)=C/c2ccc([N+](=O)[O-])cc2)SC(=S)N1CCc1ccc(O)cc1

>  <assay.target>
U251 CNS

>  <obs.value>
-88% (active)

$$$$
>  <molecule>
O=C1c2ccccc2NC(c2cn(-c3ccccc3)nc2-c2cccs2)N1Cc1ccccc1 (centres undefined)

>  <assay.target>
U251 CNS

>  <obs.value>
86.9% (inactive)

$$$$
>  <molecule>
COc1cc(-c2cc(-c3nc4ccc(F)cc4[nH]3)[nH]n2)cc(OC)c1OC

>  <assay.target>
U251 CNS

>  <obs.value>
46.2% (inactive)

$$$$
>  <molecule>
CC1(C)CC[C@]2(C(=O)Nc3ccccn3)CC[C@]3(C)C(=CC[C@@H]4[C@@]5(C)C/C(=C/c6ccncc6)C(=O)C(C)(C)[C@@H]5CC[C@]43C)[C@@H]2C1

>  <assay.target>
U251 CNS

>  <obs.value>
10.3% (inactive)

$$$$
>  <molecule>
Cc1nn2c(-c3nc4cc(Cl)c(Cl)cc4[nH]3)c(-c3ccc(F)cc3)nc2s1

>  <assay.target>
U251 CNS

>  <obs.value>
10.6% (inactive)

$$$$
>  <molecule>
Cc1ccc(S(=O)(=O)Nc2ccc(-c3cc(-c4cccc(F)c4)c(C#N)c(N)n3)cc2)cc1

>  <assay.target>
U251 CNS

>  <obs.value>
22.6% (inactive)

$$$$
